measured.attribute: melting point (°C)

>>> reported_value("O=S1(=O)OC(c2ccc(O)c(Cl)c2)(c2ccc(O)c(Cl)c2)c2ccccc21")
261
>>> reported_value("Cc1cc([N+](=O)[O-])cnc1N")
260
>>> reported_value("CN(C)c1ccc(C(c2ccc(N(C)C)cc2)c2ccc(N(C)C)cc2)cc1")
180
>>> reported_value("FC(F)(F)c1ccc(Br)cn1")
40

====

Documented melting point across a set of compounds
measured.attribute: melting point (°C)

>>> reported_value("CC(=O)c1c(-c2ccccc2)cc2ccccc2c1O")
55
>>> reported_value("Cc1ccc(-c2cccc(C)c2)cc1")
14.5
>>> reported_value("CC[Si](Cl)(CC)CC")
-75
